Here, each record is paired with measured yeast fitness data.
B1: tRNA (parent)
chain: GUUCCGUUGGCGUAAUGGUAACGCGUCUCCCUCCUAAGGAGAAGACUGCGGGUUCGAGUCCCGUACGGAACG

- Variants of: B1
- test-protocol: yeast fitness relative to wild type (ratio to wild type); higher = fitter; tRNA-Arg(CCU), competitive growth, 37 C, YPD
Fewer inactive variants are shown than the library holds.
The reply should be a number, written without any unit.

{"alteration": "C46U C49A A65U", "yeast fitness": 0.554}
{"alteration": "C24G A37G G67C", "yeast fitness": 0.549}
{"alteration": "A14U C22G A70U", "yeast fitness": 0.576}
{"alteration": "U16C A70U", "yeast fitness": 0.902}
{"alteration": "U2A U28C", "yeast fitness": 0.835}

Challenge: Endpoint output: yeast fitness of C33U G48A C60U U64G A65U A69C . Value?
Response given: 0.571

Challenge: Same again, this time with U8G G17A A20C C22G C29G C34G G68A
Response given: 0.606

Challenge: Please do the same for A15C C31U G38A G56C A70U as well.
Response given: 0.581
